conditionsUsed: 308.15 K; 101.33 kPa; Liquid; Vibrating tube method
property: mass density (kg/m3)

[[record]]
compound = "CCCCCCCC(=O)[O-].CCCCCC[NH+](CCCCCC)CCCCCC [trihexylammonium octanoate]"
result = 840.48

[[record]]
compound = "CCCCCCCC(=O)[O-].CCCCCCCC[NH+](CCCCCCCC)CCCCCCCC [trioctylammonium octanoate]"
result = 839.31

[[record]]
compound = "CCCC(=O)[O-].CCCCCCCC[NH+](CCCCCCCC)CCCCCCCC [trioctylammonium butanoate]"
result = 835.16

[[record]]
compound = "CCCCCC(=O)[O-].CCCCCCCC[NH+](CCCCCCCC)CCCCCCCC [trioctylammonium hexanoate]"
result = 837.58

[[record]]
compound = "CCCCCC(=O)[O-].CCCCCC[NH+](CCCCCC)CCCCCC [trihexylammonium hexanoate]"
result = 838.96

[[record]]
compound = "CCCC(=O)[O-].CCCCCC[NH+](CCCCCC)CCCCCC [trihexylammonium butanoate]"
result = 836.93

